Target System: UniProt Q8TDS7
Sequence (Q8TDS7 whole entry): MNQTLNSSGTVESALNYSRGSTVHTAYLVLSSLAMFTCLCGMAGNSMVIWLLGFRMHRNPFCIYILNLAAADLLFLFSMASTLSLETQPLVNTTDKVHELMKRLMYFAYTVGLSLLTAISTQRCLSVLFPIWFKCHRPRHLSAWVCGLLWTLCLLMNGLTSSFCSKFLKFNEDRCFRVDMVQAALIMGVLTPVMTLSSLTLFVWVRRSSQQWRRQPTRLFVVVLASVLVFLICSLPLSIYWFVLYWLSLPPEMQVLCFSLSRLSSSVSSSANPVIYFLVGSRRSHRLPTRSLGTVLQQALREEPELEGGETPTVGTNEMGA
Assay Comment: MRGPRD antagonist activity, IP-One HTRF assay in CHO cells stably expressing human MRGPRD (versus 100 μM β-Alanine agonist)
Measured Endpoint: IC50

Examples with answers:
{"columns": ["Compound", "IC50"],
 "data": [
  ["COc1cccc(-c2nc([C@H]3CCN(C(=O)Nc4ccccc4F)C3)n3ccccc23)c1 [Compound 21-2]", "1000 to 3000 nM"],
  ["CN(C)C(=O)c1ccc(-c2nc([C@@H]3CCCN(C(=O)Nc4ccc(N(C)C)cc4)C3)n3ccccc23)cc1 [Compound 10-46]", "> 3000 nM"],
  ["COc1cccc(-c2nc([C@@H]3CCCN(C(=O)Nc4cccc(N(C)C)c4)C3)n3ccccc23)c1 [Compound 5-36]", "100 to 500 nM"],
  ["CN(C)c1ccc(NC(=O)N2CCC[C@@H](c3nc(-c4cnoc4)c4ccccn34)C2)cc1 [Compound 10-53]", "500 to 1000 nM"],
  ["COc1cccc(-c2nc([C@@H]3CCCN(C(=O)Nc4cc(C)nn4C)C3)n3ccccc23)c1 [Compound 5-59]", "< 100 nM"]
]}

IC50 of COc1ccc(NC(=O)N2CCC[C@@H](c3nc(-c4cccc(OC)c4)c4ccccn34)C2)cc1 [Compound 1-17] on UniProt Q8TDS7?
< 100 nM

IC50 of CNC(=O)N1CCCC(c2nc(-c3cccc(OC)c3)c3ccccn23)C1 (centres unmarked) [Compound 3-13] on UniProt Q8TDS7?
> 3000 nM

IC50 of CNC(=O)N1CCC[C@H]1c1nc(-c2cccc(OC)c2)c2ccccn12 [Compound 21-3] on UniProt Q8TDS7?
> 3000 nM
